- Tested on: MCF7
- assay procedure: Growth inhibition of human MCF7 cells after 72 hrs by MTS assay
- Assay type: functional, cell-based
- condition info: MCF7, 72 h
pIC50: −log10 of the molar value.
parameter measured: pIC50

INSERT INTO measurements (molecule, assay_target, parameter_measured, endpoint_value) VALUES
  ('CC[C@]1(NC(=O)N2CC=CCC2)C[C@H]2CN(CCc3c([nH]c4ccccc34)[C@@](C(=O)OC)(c3cc4c(cc3OC)N(C)[C@H]3[C@@](O)(C(=O)OC)[C@H](OC(C)=O)[C@]5(CC)C=CCN6CC[C@]43[C@@H]65)C2)C1', 'MCF7', 'pIC50', '< 7.90');

Each molecule below has a recorded value; state its pIC50.
1. CC[C@]1(O)C[C@@H]2CN(CCc3c([nH]c4ccccc34)[C@@](C(=O)OC)(c3cc4c(cc3OC)N(C)[C@H]3[C@@](O)(C(=O)OC)[C@H](OC(C)=O)[C@]5(CC)C=CCN6CC[C@]43[C@@H]65)C2)C1 [VINBLASTINE]
2. CC[C@]1(NC(=O)N2CCc3ccccc3C2)C[C@H]2CN(CCc3c([nH]c4ccccc34)[C@@](C(=O)OC)(c3cc4c(cc3OC)N(C)[C@H]3[C@@](O)(C(=O)OC)[C@H](OC(C)=O)[C@]5(CC)C=CCN6CC[C@]43[C@@H]65)C2)C1
3. CC[C@]1(NC(=O)N2Cc3ccccc3C2)C[C@H]2CN(CCc3c([nH]c4ccccc34)[C@@](C(=O)OC)(c3cc4c(cc3OC)N(C)[C@H]3[C@@](O)(C(=O)OC)[C@H](OC(C)=O)[C@]5(CC)C=CCN6CC[C@]43[C@@H]65)C2)C1

Reply |
1. < 6.96
2. 8.68
3. < 7.90
